Measured values drawn from paper PMC5540273 for this set.

test system: SNARK; construct: gene NUAK2; conditions: concentration: 1 μM, replicates: in singlicate; n = 1;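 also: KINOMEscan kinase panel screen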
Collected %Inh values appear next to each entry.
experimental.readout: %Inh (%)

>>> df
                                   compound  assayed_target  output_unit  value_reported
0  CCOc1nccc(-c2c(-c3ccc(F)cc3)ncn2C2CCNCC2)n1           SNARK            %              82
1  NCCC(NC(=O)c1cc(Br)c(-c2ccnc3[nH]ccc23)s1)c1ccccc1.O=C(O)C(F)(F)F.O=C(O)C(F)(F)F (centres unmarked)           SNARK            %            90.2
2  Cc1ccccc1CC(=O)N1CCc2cc(-c3cn(C)c4ncnc(N)c34)ccc21           SNARK            %              34
3  COc1ccc(NC(=O)c2ccoc2)cc1-c1ccc(C(=O)NCC2CC2)cc1           SNARK            %              18
4  Nc1ncnc2scc(-c3ccc(NC(=O)Cc4cc(F)ccc4F)cc3)c12.O=C(O)C(F)(F)F           SNARK            %              23
5  COc1cccc(C2=C(Nc3cccc(O)c3)C(=O)NC2=O)c1           SNARK            %               0
6  O=C(Nc1n[nH]c2nc(-c3cccc(O)c3)ccc12)C1CC1           SNARK            %               0
7  COC(=O)Nc1nc2cc(Oc3ccc(NC(=O)Nc4cccc(SC)c4)cc3)ccc2[nH]1.Cl           SNARK            %               7

* * *

compounds and their reported %Inh
test system: MYLK2; conditions: concentration: 1 μM, replicates: in singlicate; n = 1
experimental.readout: %Inh (%)

>>> print(df.to_string())
                                    compound  experimental_readout  value_reported
 0  CNc1nccc(-c2ccc3c(N)n[nH]c3c2)n1 [GSK2206003]                  %Inh              60
 1  COC(=O)Nc1nc2ccc(Oc3ccc(NC(=O)Nc4cc(C(F)(F)F)ccc4F)cc3)cc2[nH]1.Cl [GW654607]                  %Inh              33
 2  Cl.Cl.NC(CNC(=O)c1cc(Br)c(-c2ccnc3[nH]ccc23)s1)c1ccccc1 (centres unmarked) [GSK1322949]                  %Inh              27
 3  Cn1cc(-c2ccc3c(c2)CCN3C(=O)Cc2cc(F)cc(F)c2F)c2c(N)ncnc21 [GSK2634140]                  %Inh              82
 4  Cc1cc(-c2c(-c3ccc(F)cc3)ncn2CCCN2CCOCC2)nc(N)n1 [SB-222517]                  %Inh               1
 5  CC(C)NCC(Cc1ccccc1)NC(=O)c1cc(Br)c(-c2ccnc3[nH]ccc23)s1.Cl.Cl (centres unmarked) [GSK1383281]                  %Inh               1
 6  Cn1cc(-c2cnc(N)c3c(-c4ccc5c(c4)CCN5C(=O)Cc4ccccc4)csc23)cn1 [GSK2593074]                  %Inh              55
 7  COc1cccc(-c2nc(-c3ccccc3)[nH]c2-c2ccncc2)c1 [SB-610250]                  %Inh               8
 8  Cc1ccc(O)cc1Nc1ccnc2ccc(C(C)(C)C)cc12 [GW856805]                  %Inh               5
 9  CC(C)c1nc(-c2cccc(NS(=O)(=O)c3c(F)cccc3F)c2)c(-c2ccnc(Nc3ccc(N4CCOCC4)nc3)n2)s1.Cl [GSK1723980]                  %Inh               0
10  c1ccc(Oc2ccc(Nc3ccnc4cc(-c5ccc(CN6CCCCC6)o5)ccc34)cc2)nc1 [GW567143]                  %Inh               0
11  O=C(Nc1n[nH]c2nc(-c3ccccc3)ccc12)C1CC1 [SB-708999]                  %Inh              86
12  Fc1cc(Cl)ccc1Nc1ccnc2cc(-c3ccc(CN4CCSCC4)o3)ccc12 [GW560106]                  %Inh              13
13         CN(C)c1ncnc2nc[nH]c12 [SKF-31736]                  %Inh               0
